# merged literature set: pKi with UniProt P00734
For clarity, pKi is expressed as the negative log10 of concentration in mol/L.

Answered examples (3):
{"Compound": "CC(C)(C)c1ccc(C(=O)NC/C=C/c2cc(C(=N)N)ccc2O)cc1", "System Name": "UniProt P00734", "pKi": 5.49}
{"Compound": "Cc1cc(CNC(=O)[C@@H]2CCCN2C(=O)[C@H](N)C(c2ccccc2)c2ccccc2)c(C)cc1CN", "System Name": "UniProt P00734", "pKi": 7.41}
{"Compound": "CCCN(Cc1ccoc1)C(=O)c1cc(C)cc(OCCCONC(=N)N)c1", "System Name": "UniProt P00734", "pKi": 8.05}

Bench note, UniProt P00734: `N=C(N)c1ccc(/C=C2\CCCCCCC/C(=C\c3ccc(C(=N)N)cc3)C2=O)cc1` , pKi reads 6.14

Measured pKi for this entry `CN(CC(=O)O)C(=O)[C@H](CC(=O)NC[C@@H]1CCCN(C(=N)N)C1)NS(=O)(=O)c1ccc2ccccc2c1` on UniProt P00734: 7.00

Field pKi (UniProt P00734), entry `CC1=C(CC(=O)NCc2cc(Cl)ccc2CN)C(=O)N(NCc2ccccc2)CC1` : 9.30

====

# merged literature set: Ki with Prothrombin (Homo sapiens)

{"Molecule": "Clc1ccc(-n2cncn2)c(Cc2nc3c(NCCC4CCCCN4Cc4ccccc4)nccc3o2)c1 (stereo not given)", "System Name": "Prothrombin (Homo sapiens)", "Parameter Measured": "Ki", "Result": "0.00014 µM"}

Lab note: molecule CCOc1cc(C(Nc2ccc3cnccc3c2)C(=O)NS(=O)(=O)c2ccc(S(C)(=O)=O)cc2)ccc1OC(C)C (stereo not given) tested on Prothrombin (Homo sapiens); recorded Ki was > 13 µM

Simply: Cc1c(F)c(Oc2cccc(C(=N)N)c2)nc(Oc2cccc(C(O)C(=O)N(C)C)c2)c1F (stereo not given) , Prothrombin (Homo sapiens), Ki = > 5 µM

`CC(=N)N1CCC(Oc2ccc3c(nc(C(C)C)n3Cc3ccc4ccc(C(=N)N)cc4c3)c2[N+](=O)[O-])CC1` tested on Prothrombin (Homo sapiens) gave Ki: > 5 µM

Field Ki (system: Prothrombin (Homo sapiens)) for entry CCOC(=O)C(Oc1ccc2c(c1)CN(C(=N)N)CC2)c1ccc(OC2CCN(C(C)=O)CC2)cc1 (stereo not given) = > 100 µM

====

Consider the following pKi data for Prothrombin (Homo sapiens, UniProt P00734), collected from several reports.
pKi: −log10 of the molar value.

Readout pKi for `NC(N)=Nc1ccc(NC(=O)c2cc(Br)ccc2O)cc1` , test system Prothrombin (Homo sapiens, UniProt P00734), was < 3.35

Tested on Prothrombin (Homo sapiens, UniProt P00734), the item `COC(=O)[C@H](Cc1cccc(C(=N)N)c1)[C@@H](C)NC(=O)c1ccc(-c2ccc(C(=O)O)cc2)cc1` showed pKi equal to < 5.40

Tested on Prothrombin (Homo sapiens, UniProt P00734), the item `CC(=N)N1CCC(CNC(=O)N2CCN(C(=O)O[C@H]3CCC[C@@H](OC(=O)N4CCN(C(=O)NCC5CCN(C(C)=N)CC5)CC4)CCC3)CC2)CC1` showed pKi equal to < 3.00

The reported pKi value, Prothrombin (Homo sapiens, UniProt P00734), for `CCc1nc2c(N(C)C)c(OC3CCN(C(C)=N)CC3)ccc2n1Cc1ccc2ccc(C(=N)N)cc2c1` reads < 5.30
